Data provenance is the supplement of paper PMC5908809.

- Tested on: IMC-1 (IL-2 20 ng/mL)
- assay-procedure: percent inhibition of viability; higher = more inhibition
- condition-set: 72 h; 10000 nM
endpoint-name: percent inhibition of viability (%)
Reply numerically in %, unit not repeated.

Guide cases for percent inhibition of viability, answers given:
- molecule: "O=C(NC1CCNCC1)c1n[nH]cc1NC(=O)c1c(Cl)cccc1Cl [AT7519] (max concentration tested 10000 nM)"
  unit-name: "%"
  reported-result: 96.4
- molecule: "CO[C@@H]1[C@H](N(C)C(=O)c2ccccc2)C[C@H]2O[C@]1(C)n1c3ccccc3c3c4c(c5c6ccccc6n2c5c31)C(=O)NC4 [Midostaurin] (max concentration tested 10000 nM)"
  unit-name: "%"
  reported-result: 100
- molecule: "Cc1cn(-c2cc(NC(=O)c3ccc(C)c(Nc4nccc(-c5cccnc5)n4)c3)cc(C(F)(F)F)c2)cn1 [Nilotinib] (max concentration tested 10000 nM)"
  unit-name: "%"
  reported-result: -38.1
- molecule: "CN[C@@H]1C[C@H]2O[C@@](C)([C@@H]1OC)n1c3ccccc3c3c4c(c5c6ccccc6n2c5c31)C(=O)N[C@H]4O [UCN-01] (max concentration tested 10000 nM)"
  unit-name: "%"
  reported-result: 101
- molecule: "COc1cc2c(cc1-c1c(C)noc1C)ncc1[nH]c(=O)n([C@H](C)c3ccccn3)c12 [I-BET151] (max concentration tested 10000 nM)"
  unit-name: "%"
  reported-result: 80.4

Return value of percent inhibition of viability for input O=C(CCBr)N1CCN(C(=O)CCBr)CC1 [Pipobroman] (max concentration tested 10000 nM) , no commentary.
11.6

Return value of percent inhibition of viability for input C#Cc1cccc(Nc2ncnc3cc(OCCOC)c(OCCOC)cc23)c1 [Erlotinib] (max concentration tested 10000 nM) , no commentary.
22.8

Return value of percent inhibition of viability for input Cn1cncc1[C@@](N)(c1ccc(Cl)cc1)c1ccc2c(c1)c(-c1cccc(Cl)c1)cc(=O)n2C [Tipifarnib] (max concentration tested 10000 nM) , no commentary.
84.9

Return value of percent inhibition of viability for input C[C@@H]1COC(Nc2ccc3ncnc(Nc4ccc(OCc5nccs5)c(Cl)c4)c3c2)=N1 [Varlitinib] (max concentration tested 10000 nM) , no commentary.
34

* * *

- Test system: normal primary NK cells, pool 1 (3 donors), resting (IL-2 0 ng/mL)
- assay-procedure: drug sensitivity score (DSS) (DSS units); higher = more sensitive; extreme values may be limits of the assay
- condition-set: 72 h
endpoint-name: drug sensitivity score
Just the number, please.

Guide cases for drug sensitivity score, answers given:
- compound: "NC(=O)c1cccc2cn(-c3ccc([C@@H]4CCCNC4)cc3)nc12 [Niraparib] (max concentration tested 10000 nM)"
  drug sensitivity score: 0
- compound: "O=C(c1cccc(Cl)c1F)N1CCN(Cc2cccc(Nc3nccs3)n2)CC1 [MK-8745] (max concentration tested 2500 nM)"
  drug sensitivity score: 0
- compound: "CNc1nc(-c2ccc3c(N)n[nH]c3c2)cc(N2C[C@@H](C(=O)NC3CCCCC3)CC[C@H]2C)n1 (max concentration tested 10000 nM)"
  drug sensitivity score: 2.84
- compound: "CCNC(=O)Nc1ccc(-c2nc3c(c(N4CCOC[C@@H]4C)n2)CCN(C2COC2)C3)cc1 [RG-7603] (max concentration tested 2500 nM)"
  drug sensitivity score: 0.19
- compound: "CCNC(=O)CCC/C=C\\C[C@@H]1[C@@H](/C=C/[C@@H](O)CCc2ccccc2)[C@H](O)C[C@@H]1O [Bimatoprost] (max concentration tested 5500 nM)"
  drug sensitivity score: 0
- compound: "CON(C)C(=O)N1N=C(c2cc(F)ccc2F)S[C@@]1(CCCN)c1ccccc1 [ARRY-520] (max concentration tested 1000 nM)"
  drug sensitivity score: 0

In the following, a different compound is considered.
Return value of drug sensitivity score for input O=C(NOCC1CC1)c1ccc(F)c(F)c1Nc1ccc(I)cc1Cl (max concentration tested 10000 nM) , no commentary.
3.64

* * *

- System: IMC-1 (IL-2 20 ng/mL)
- assay-procedure: drug sensitivity score (DSS) (DSS units); higher = more sensitive; extreme values may be limits of the assay
- condition-set: 72 h
Criterion: drug sensitivity score meeting or surpassing 0.9. Met: Satisfied. Not met: Not satisfied.

- compound: "CCOc1cc2ncc(C#N)c(Nc3ccc(F)c(Cl)c3)c2cc1NC(=O)/C=C/CN(C)C [Pelitinib] (max concentration tested 2500 nM)"
  system-name: "IMC-1 (IL-2 20 ng/mL)"
  answer-label: "Satisfied"

We now examine a further compound.
drug sensitivity score >= 0.9 for O=C(O)c1ccc2c(c1)nc(Nc1cccc(Cl)c1)c1ccncc12 [Silmitasertib] (max concentration tested 10000 nM) ?
Satisfied

* * *

- Tested on: DERL-7 (IL-2 2.5 ng/mL)
- assay-procedure: percent inhibition of viability; higher = more inhibition
- condition-set: 72 h; 10 nM
endpoint-name: percent inhibition of viability (%)
Reply numerically in %, unit not repeated.

Guide cases for percent inhibition of viability, answers given:
- compound: "COc1ccc(COc2cc3oc(=O)c4cc(C(C)O)ccc4c3cc2OC)cc1 (stereo not drawn) [Palomid-529] (max concentration tested 10000 nM)"
  endpoint-name: "percent inhibition of viability"
  unit-name: "%"
  reported-result: -4.11
- compound: "Cc1cc(OCc2nnc(SC3CCCC3)n2-c2cccnc2)ccc1-c1ccc(S(C)(=O)=O)cc1 [NMS-873] (max concentration tested 10000 nM)"
  endpoint-name: "percent inhibition of viability"
  unit-name: "%"
  reported-result: 2.79
- compound: "C/C(=C\\c1csc(C)n1)[C@@H]1C[C@@H]2O[C@]2(C)CCC[C@H](C)[C@H](O)[C@@H](C)C(=O)C(C)(C)[C@@H](O)CC(=O)N1 [Ixabepilone] (max concentration tested 1000 nM)"
  endpoint-name: "percent inhibition of viability"
  unit-name: "%"
  reported-result: 3.37
- compound: "O=C(CCBr)N1CCN(C(=O)CCBr)CC1 [Pipobroman] (max concentration tested 10000 nM)"
  endpoint-name: "percent inhibition of viability"
  unit-name: "%"
  reported-result: -1.37
- compound: "CC(C)n1nc(-c2ccc3oc(N)nc3c2)c2c(N)ncnc21 [INK128] (max concentration tested 1000 nM)"
  endpoint-name: "percent inhibition of viability"
  unit-name: "%"
  reported-result: 39.4

Return value of percent inhibition of viability for input CN(C)Cc1ccc(S(=O)(=O)n2ccc(/C=C/C(=O)NO)c2)cc1 [Resminostat] (max concentration tested 10000 nM) , no commentary.
1.77

Return value of percent inhibition of viability for input COc1cc2nccc(Oc3ccc(NC(=O)C4(C(=O)Nc5ccc(F)cc5)CC4)cc3)c2cc1OC [Cabozantinib] (max concentration tested 1000 nM) , no commentary.
6.31

Return value of percent inhibition of viability for input C[C@@H]1COC(Nc2ccc3ncnc(Nc4ccc(OCc5nccs5)c(Cl)c4)c3c2)=N1 [Varlitinib] (max concentration tested 10000 nM) , no commentary.
-3.89

Return value of percent inhibition of viability for input CCCCCOC(=O)Nc1nc(=O)n([C@@H]2O[C@H](C)[C@@H](O)[C@H]2O)cc1F [Capecitabine] (max concentration tested 10000 nM) , no commentary.
4.42

Return value of percent inhibition of viability for input COc1ccc(-c2ccc3c(N4CCOC[C@@H]4C)nc(N4CCOC[C@@H]4C)nc3n2)cc1CO [AZD8055] (max concentration tested 10000 nM) , no commentary.
34.1

Return value of percent inhibition of viability for input COc1cc2c(cc1-c1c(C)noc1C)ncc1[nH]c(=O)n([C@H](C)c3ccccn3)c12 [I-BET151] (max concentration tested 10000 nM) , no commentary.
-1.77

Return value of percent inhibition of viability for input CNC(=O)c1ccc(C)c(-n2c(C)cc(OCc3ccc(F)cc3F)c(Br)c2=O)c1 (max concentration tested 1000 nM) , no commentary.
-4.27

Return value of percent inhibition of viability for input CNC(=O)c1cc(Oc2ccc(NC(=O)Nc3ccc(Cl)c(C(F)(F)F)c3)cc2)ccn1 [Sorafenib] (max concentration tested 1000 nM) , no commentary.
4.15

Return value of percent inhibition of viability for input C[C@@H](Oc1cc(-c2cnn(C3CCNCC3)c2)cnc1N)c1c(Cl)ccc(F)c1Cl [Crizotinib] (max concentration tested 1000 nM) , no commentary.
-1.8

Return value of percent inhibition of viability for input Cc1cn(-c2cc(NC(=O)c3ccc(C)c(Nc4nccc(-c5cccnc5)n4)c3)cc(C(F)(F)F)c2)cn1 [Nilotinib] (max concentration tested 10000 nM) , no commentary.
4.31

Return value of percent inhibition of viability for input C#Cc1cccc(Nc2ncnc3cc(OCCOC)c(OCCOC)cc23)c1 [Erlotinib] (max concentration tested 10000 nM) , no commentary.
-2.35

Return value of percent inhibition of viability for input Cc1cc(Nc2cc(N3CCN(C)CC3)nc(Sc3ccc(NC(=O)C4CC4)cc3)n2)n[nH]1 [Tozasertib] (max concentration tested 10000 nM) , no commentary.
-3.04

Return value of percent inhibition of viability for input CNc1nc(-c2ccc3c(N)n[nH]c3c2)cc(N2C[C@@H](C(=O)NC3CCCCC3)CC[C@H]2C)n1 (max concentration tested 10000 nM) , no commentary.
4.6

Return value of percent inhibition of viability for input Nc1ncnc2c1c(COc1cccc(Cl)c1)nn2C1CCOCC1 (max concentration tested 10000 nM) , no commentary.
-6.37

Return value of percent inhibition of viability for input O=C(c1cc(Cc2n[nH]c(=O)c3ccccc23)ccc1F)N1CCN(C(=O)C2CC2)CC1 [Olaparib] (max concentration tested 10000 nM) , no commentary.
4.77
